Source: ChEMBL document CHEMBL1145439

# System: Lung
# assay_comment: Biodistribution in lung of mouse EMT6 tumor bearing BALB/c mouse at 10 to 20 uCi after 5 mins
# Assay type: ADME, organism-based
# assay_conditions: in vivo
result_type: Drug uptake (% ID/g)
Numbers only, in % ID/g.

Take a look at these entries with their results.
COc1cc2c(cc1OC)CN(CCCCNC(=O)c1cc(I)ccc1OCC[18F])CC2 = 9.71
COc1cc2c(cc1OC)CN(CCCCNC(=O)c1cc(I)cc(OC)c1OCC[18F])CC2 = 18.47
COc1cc2c(cc1OC)CN(CCCCNC(=O)c1cc(Br)ccc1OCC[18F])CC2 = 12.08

Need Drug uptake of COc1cc2c(cc1OC)CN(CCCCNC(=O)c1cc(C)ccc1OCC[18F])CC2 , thanks. 10.26

* * *

# Tested on: Liver
# assay_comment: Biodistribution in liver of mouse EMT6 tumor bearing BALB/c mouse at 10 to 20 uCi after 5 mins
# Type: ADME, organism-based
# assay_conditions: in vivo
result_type: Drug uptake
Please append the unit to your numeric answer.

Below are worked cases with known answers.
COc1cc2c(cc1OC)CN(CCCCNC(=O)c1cc(I)ccc1OCC[18F])CC2 = 37.26 % ID/g
COc1cc2c(cc1OC)CN(CCCCNC(=O)c1cc(Br)ccc1OCC[18F])CC2 = 32.6 % ID/g
COc1cc2c(cc1OC)CN(CCCCNC(=O)c1cc(C)ccc1OCC[18F])CC2 = 23.33 % ID/g

Here is another molecule to look at.
Would you mind telling me what Drug uptake value was observed for COc1cc2c(cc1OC)CN(CCCCNC(=O)c1cc(I)cc(OC)c1OCC[18F])CC2 ? 15.21 % ID/g

* * *

# Test system: Lung
# assay_comment: Biodistribution in lung of mouse EMT6 tumor bearing BALB/c mouse at 10 to 20 uCi after 60 mins
# Format: ADME, organism-based
# assay_conditions: in vivo, 1 h
So I've got a bunch of compounds here, and I need their Drug uptake values.
One number for each entry, in % ID/g.

Solved cases (3 shown):
COc1cc2c(cc1OC)CN(CCCCNC(=O)c1cc(I)cc(OC)c1OCC[18F])CC2 = 1.51
COc1cc2c(cc1OC)CN(CCCCNC(=O)c1cc(Br)ccc1OCC[18F])CC2 = 1.6
COc1cc2c(cc1OC)CN(CCCCNC(=O)c1cc(I)ccc1OCC[18F])CC2 = 2.34

The record that follows has no Drug uptake shown yet.
Quick check: Drug uptake of COc1cc2c(cc1OC)CN(CCCCNC(=O)c1cc(C)ccc1OCC[18F])CC2 ? 0.88

* * *

# Test system: Muscle tissue
# assay_comment: Biodistribution in muscle of mouse EMT6 tumor bearing BALB/c mouse at 10 to 20 uCi after 30 mins
# Assay type: ADME, organism-based
# assay_conditions: in vivo, 0.5 h
result_type: Drug uptake (% ID/g)
Answers are plain numbers, in % ID/g.

Batch request: Drug uptake per item, same order as input.
1. COc1cc2c(cc1OC)CN(CCCCNC(=O)c1cc(Br)ccc1OCC[18F])CC2
2. COc1cc2c(cc1OC)CN(CCCCNC(=O)c1cc(I)cc(OC)c1OCC[18F])CC2
3. COc1cc2c(cc1OC)CN(CCCCNC(=O)c1cc(I)ccc1OCC[18F])CC2
4. COc1cc2c(cc1OC)CN(CCCCNC(=O)c1cc(C)ccc1OCC[18F])CC2

1: 0.98; 2: 0.73; 3: 1.12; 4: 0.7

* * *

# system_tested: Sigma non-opioid intracellular receptor 1 (Cavia porcellus, UniProt Q60492)
# Sequence (Q60492 whole entry): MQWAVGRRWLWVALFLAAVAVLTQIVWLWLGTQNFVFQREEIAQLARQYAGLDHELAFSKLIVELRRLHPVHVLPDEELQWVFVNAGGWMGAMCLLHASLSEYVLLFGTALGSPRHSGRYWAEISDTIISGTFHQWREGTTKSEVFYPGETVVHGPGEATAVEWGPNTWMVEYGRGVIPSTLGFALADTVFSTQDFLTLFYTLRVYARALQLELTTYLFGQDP
# assay_comment: Displacement of [3H](+)-pentazocine from sigma 1 receptor in guinea pig brain membrane after 90 mins
result_type: pKi
One number for each entry, as −log10 of the molar value.

Recorded pKi for COc1cc2c(cc1OC)CN(CCCCNC(=O)c1cc(Br)cc(OC)c1OCCF)CC2 , please? 4.82
